# maps each entry to its Kd
assaySystem: T1, Cynomolgus monkey latent myostatin (cynomolgus monkey, UniProt Q95J86 25-266; Q95J86 267-375)
T1 construct: Latent form = complex of two propeptides and the mature dimer; also called Cyno latent myostatin
T1 sequence 1: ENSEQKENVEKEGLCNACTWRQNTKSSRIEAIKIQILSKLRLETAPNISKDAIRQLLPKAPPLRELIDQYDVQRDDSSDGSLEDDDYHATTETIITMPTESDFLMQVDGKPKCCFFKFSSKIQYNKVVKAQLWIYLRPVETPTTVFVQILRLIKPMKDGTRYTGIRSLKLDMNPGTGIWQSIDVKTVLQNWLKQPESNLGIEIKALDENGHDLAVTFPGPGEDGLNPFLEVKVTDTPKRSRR
T1 sequence 2: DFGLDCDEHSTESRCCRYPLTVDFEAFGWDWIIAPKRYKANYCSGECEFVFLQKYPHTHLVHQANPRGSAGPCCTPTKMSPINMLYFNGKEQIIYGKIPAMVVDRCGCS
experiment: SPR (BIACORE T200) 37C, pH 5.8, antibody captured by ProA/G
readoutKind: Kd (nM)

MS_M103245H1233-SG1/M103202L1045-SK1 (antibody, human IgG1, kappa, V domains shown, also called MS1032LO23-SG1) VH: QVTLKESGPVLVKPTETLTLTCKVSGIDLSHEDISWVRQAPGKGLEWVSIISYAGSTYYASWAKGRLTISKDTSKNQVVLTMTNMDPVDTATYYCARGVPAYSHGGDLWGQGTLVTVSS VL: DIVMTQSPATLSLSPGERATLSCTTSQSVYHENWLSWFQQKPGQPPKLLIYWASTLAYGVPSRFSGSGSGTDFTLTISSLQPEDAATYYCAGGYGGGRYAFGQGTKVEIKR	7.71
MS_M103245H795-SG1/M103202L1045-SK1 (antibody, human IgG1, kappa, V domains shown, also called MS1032LO21-SG1) VH: QVTLKESGPVLVKPTETLTLTCKVSGIDLSHDDISWVRQAPGKGLEWVSIISYAGSTYYASWAKGRLTISKDTSKNQVVLTMTNMDPVDTATYYCARGVPAYSHGGDLWGQGTLVTVSS VL: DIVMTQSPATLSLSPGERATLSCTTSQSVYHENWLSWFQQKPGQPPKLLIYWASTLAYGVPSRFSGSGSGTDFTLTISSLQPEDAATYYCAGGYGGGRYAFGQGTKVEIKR	31
MS_M103205H1047-SG1/M103202L889-SK1 (antibody, human IgG1, kappa, V domains shown, also called MS1032LO11-SG1) VH: QVTLKESGPVLVKPTETLTLTCTVSGIDLSHTDISWVRQAPGKGLEWVGIISYAGKKYYASWAKGRLTISKDTSKNQVVLTMTNMDPVDTATYYCARGVPAYSHGGDLWGQGTLVTVSS VL: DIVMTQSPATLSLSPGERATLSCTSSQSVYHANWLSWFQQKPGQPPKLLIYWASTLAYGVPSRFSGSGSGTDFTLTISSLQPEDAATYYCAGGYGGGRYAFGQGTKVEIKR	43.5
